A collection of molecules and their measured Ki
# assayed.target: GST-MCL-1 (Homo sapiens, UniProt Q07820)
# Sequence (Q07820 whole entry): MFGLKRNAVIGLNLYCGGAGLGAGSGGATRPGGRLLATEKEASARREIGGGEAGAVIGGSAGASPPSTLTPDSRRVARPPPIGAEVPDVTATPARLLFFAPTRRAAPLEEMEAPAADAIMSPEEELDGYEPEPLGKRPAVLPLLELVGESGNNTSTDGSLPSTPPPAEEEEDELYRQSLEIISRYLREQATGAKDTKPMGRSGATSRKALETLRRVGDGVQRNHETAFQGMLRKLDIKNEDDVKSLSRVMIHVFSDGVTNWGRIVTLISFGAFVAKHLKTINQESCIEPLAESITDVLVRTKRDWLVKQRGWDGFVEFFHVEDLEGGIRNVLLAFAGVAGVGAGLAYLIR
# assay.explanation: TR-FRET MCL-1 binding assay (competition with probe F-Bak)
# condition.notes: MCL-1 Binding Ki (nM, 10% HS), in the presence of 10% HS (human serum)
measure.name: Ki (nM)

>>> recorded_number("Cc1c(Cl)c2c(Cl)c(C)c1-c1c(-c3ccc(F)cc3)sc3ncnc(c13)O[C@@H](C(=O)O)Cc1cc(ccc1OCc1ccnc(C(C)(C)COCCOC[C@H]3COCCO3)n1)OC[C@@H](CN1CCN(C)CC1)O2")
0.797
>>> recorded_number("Cc1c(Cl)c2c(Cl)c(C)c1-c1c(-c3ccc(F)cc3)sc3ncnc(c13)O[C@@H](C(=O)O)Cc1cc(ccc1OCc1ccnc(-c3ccccc3OC[C@H](O)CO)n1)OC[C@@H](CN1CCN(C)CC1)O2")
0.238
>>> recorded_number("COCCOCCOCCO[C@H]1CC[C@H](c2nccc(COc3ccc4cc3C[C@H](C(=O)O)Oc3ncnc5sc(-c6ccc(F)cc6)c(c35)-c3c(C)c(Cl)c(c(Cl)c3C)O[C@H](CN3CCN(C)CC3)CO4)n2)CC1")
0.072
